Each entry below carries its reported GI50.
- Tested on: MDA-N
- assay.method.text: NCI tumour cell line growth inhibition, 48 h
Activity calls are given as the source filed them. Rule as the data show it: active = GI50 up to about 1.1 µM and inactive = higher.
quantity.kind: GI50

[[record]]
compound = "CC1=C(C(=O)Nc2ccccc2)C(c2ccc(C3C(C(=O)Nc4ccccc4)=C(C)NC(C)=C3C(=O)Nc3ccccc3)cc2)C(C(=O)Nc2ccccc2)=C(C)N1"
reported_result = "3.23 µM (inactive)"

[[record]]
compound = "CSc1c(C#N)c2n(c3ccccc3[n+]2C)c2ncccc12"
reported_result = "21.2 µM (inactive)"

[[record]]
compound = "CCOC(=O)C(NC(=O)CC)(Nc1ccc(S(=O)(=O)Nc2ccc(OC)nn2)cc1)C(F)(F)F (centres undefined)"
reported_result = "> 100 µM (inactive)"

[[record]]
compound = "C=C(C)C1CC2(C)C(C)CC(OC(=O)/C(C)=C\\C)CC2C(OC(=O)/C(C)=C\\C)C1O (centres undefined)"
reported_result = "55.8 µM (inactive)"

[[record]]
compound = "O=[N+]([O-])c1ccc2[nH]c(-c3ccc(Cl)cc3)nc2c1"
reported_result = "24 µM (inactive)"

[[record]]
compound = "CCCCCC(/C=N/NC(N)=S)C(O)(C(F)(F)F)C(F)(F)F (centres undefined)"
reported_result = "> 10 µM (inactive)"

[[record]]
compound = "C[C@H]1[C@H](C)N(Cc2ccccc2)P(=O)(C(O)/C=C/c2ccccc2)N1Cc1ccccc1 (some centres undefined)"
reported_result = "5.55 µM (inactive)"

[[record]]
compound = "Oc1ccc2c(c1)OCC(O)(c1ccccc1O)C2 (centres undefined)"
reported_result = "> 100 µM (inactive)"

[[record]]
compound = "Clc1ccc2oc(CCc3ccccc3)nc2c1"
reported_result = "50.1 µM (inactive)"


====

- System: Malme-3M
- assay.method.text: NCI tumour cell line growth inhibition, 48 h
Activity calls are given as the source filed them. Rule as the data show it: active = GI50 up to about 1.1 µM and inactive = higher.
Outcome codes: active, inactive

[[record]]
molecule = "COC/C=C\\[C@@]1(O)CCCC[C@@H]1CC(OC)OC"
class_name = "inactive"

[[record]]
molecule = "C[C@H]1O[C@@H](O[C@H]2[C@@H](O)C[C@H](O[C@H]3[C@@H](O)C[C@H](O[C@H]4CC[C@@]5(C)[C@H](CC[C@@H]6[C@@H]5CC[C@]5(C)[C@@H](C7=CC(=O)OC7)CC[C@]65O)C4)O[C@@H]3C)O[C@@H]2C)C[C@H](O)[C@@H]1O"
class_name = "active"

[[record]]
molecule = "O=C(Nc1ccc(Cl)cc1)C(=O)C1=C(O)c2ccccc2OC1"
class_name = "active"

[[record]]
molecule = "CN(C)c1ccc2cc3ccc(N(C)C)cc3nc2c1"
class_name = "inactive"

[[record]]
molecule = "CC(=O)OC(C)c1cc2c(s1)C(=O)c1ccsc1C2=O (stereo not drawn)"
class_name = "active"

[[record]]
molecule = "COc1cccc2c1C(=O)c1c(O)c3c(c(O)c1C2=O)C[C@@](O)(C(=O)CN1CCOCC1)C[C@@H]3OC1CC(N)C(O)C(C)O1 (stereo partly drawn)"
class_name = "inactive"

[[record]]
molecule = "CCc1nc(N)nc(N)c1-c1ccc(NCCN)c([N+](=O)[O-])c1"
class_name = "inactive"

[[record]]
molecule = "C=CCNC1=C2C[C@@H](C)C[C@@H](OC)[C@H](OC(=O)CCN(C)C)[C@H](C)/C=C(\\C)[C@@H](OC(N)=O)[C@H](OC)/C=C\\C=C(/C)C(=O)NC(=CC1=O)C2=O"
class_name = "active"

[[record]]
molecule = "COc1cc(S(=O)(=O)Nc2nc(-c3ccc(N)cc3)cs2)ccc1Cl"
class_name = "inactive"

[[record]]
molecule = "COc1cc(/C=C(\\C#N)C(N)=C(C#N)C#N)cc(O)c1O"
class_name = "inactive"

[[record]]
molecule = "CC(=O)[C@H]1[C@@H](OCc2ccccc2)O[N+]([O-])=C(C)[C@@H]1c1ccccc1"
class_name = "inactive"

[[record]]
molecule = "O=C(NCc1ccccc1)c1nn[nH]c1O"
class_name = "inactive"

[[record]]
molecule = "C/C(=N\\NC(N)=S)c1ccc(/C(C)=N/NC(N)=S)cc1"
class_name = "inactive"

[[record]]
molecule = "CCOC(=O)CCCN"
class_name = "inactive"

[[record]]
molecule = "CC1=Nc2c(O)nc(S)nc2NC(c2ccc(Cl)c(Cl)c2)C1 (stereo not drawn)"
class_name = "inactive"

[[record]]
molecule = "CC(C)=CCc1cc(C2COc3cc4c(c(O)c3C2=O)C=CC(C)(C)O4)c(O)cc1O (stereo not drawn)"
class_name = "inactive"

[[record]]
molecule = "CC(=O)OC12COC1CC(O)C1(C)C(=O)C(O)C3=C(C)C(O)CC(O)(C(OC(=O)c4ccccc4)C21)C3(C)C (stereo not drawn)"
class_name = "inactive"

[[record]]
molecule = "CC(CC(=O)Nc1ccc(NC(=O)CC(C)/N=N\\C(N)=S)cc1)/N=N\\C(N)=S (stereo not drawn)"
class_name = "inactive"

[[record]]
molecule = "CC(=O)Nc1ccc(Nc2cc(=O)n(C)c(=O)[nH]2)cc1"
class_name = "inactive"

[[record]]
molecule = "O=C1C[S+]([O-])c2ccccc2N1 (stereo not drawn)"
class_name = "inactive"

[[record]]
molecule = "Cc1ccc(-c2n[nH]c(=O)[nH]2)cc1[N+](=O)[O-]"
class_name = "inactive"

[[record]]
molecule = "CC[C@@H]1CC[C@@H]2[C@H](CC[C@]3(C)[C@@H](OS(=O)(=O)c4ccc(C)cc4)CC[C@@H]23)[C@H]1COS(=O)(=O)c1ccc(C)cc1"
class_name = "inactive"

[[record]]
molecule = "NC(=O)C(=Cc1ccc(C(O)P(=O)(O)O)cc1)C(N)=O (stereo not drawn)"
class_name = "inactive"

[[record]]
molecule = "S=C(S)N1CCN(c2ccc(Cl)c(Cl)c2)CC1"
class_name = "inactive"

[[record]]
molecule = "O=c1[nH]c(=O)n(C2CC(O)C(CO)O2)cc1C#Cc1c(F)c(F)c(F)c(F)c1F (stereo not drawn)"
class_name = "inactive"

[[record]]
molecule = "C/C=C1\\C[C@@H]2C(OC)Nc3cc(O)c(OC)cc3C(=O)N2C1 (stereo partly drawn)"
class_name = "active"

[[record]]
molecule = "CCCCCCNCCCNc1c2ccccc2nc2cccc([N+](=O)[O-])c12"
class_name = "active"

[[record]]
molecule = "CN(C)CCCNc1ncnc2[nH]cnc12"
class_name = "inactive"

[[record]]
molecule = "Clc1ccc(-c2noc(CN3CCCCC3)n2)cc1"
class_name = "inactive"

[[record]]
molecule = "CCOC(=O)c1c(N2CCCC2)[nH]c(=O)c(C(c2ccc(N(C)C)cc2)c2c(O)c(C(=O)OCC)c(N3CCCC3)[nH]c2=O)c1O"
class_name = "inactive"

[[record]]
molecule = "COc1cc(S(=O)(=O)Nc2ccc(-c3csc(N4C(=O)C(C)SC4c4ccccc4O)n3)cc2)ccc1Cl (stereo not drawn)"
class_name = "inactive"

[[record]]
molecule = "Clc1cccc(N2CCN(CCCN3CCc4c([nH]c5ccccc45)C3c3cccnc3)CC2)c1 (stereo not drawn)"
class_name = "inactive"

[[record]]
molecule = "Cc1cc(S(=O)(=O)Nc2nc3cc(-c4ccc(Cl)cc4)sc3c(=O)n2N)c(S)cc1Cl"
class_name = "inactive"

